Biological target: Mitogen-activated protein kinase 1 (ERK2) (Homo sapiens)
Assay: Inhibition of MAPK2
measurement label: IC50

compound `Nc1nccn2c1c(-c1ccc3ccc(-c4ccccc4)nc3c1)nc2[C@H]1C[C@@H](CN2CCC2)C1` , IC50 observed: > 10 µM
